From: patent US20240116946A1

Catalogue of IC50 values
biological target: recombinant SARS-CoV-2 Main protease (Mpro) (Severe acute respiratory syndrome coronavirus 2 (2019-nCoV) (SARS-CoV-2)); assay: Cov Mpro Biochemical IC50 Assay; conditions: recombinant SARS-CoV-2 Mpro 7.5 nM, fluorogenic peptide substrate 40 μM; read-out: MPro IC50
// note: answer is a bare numeric in nM

As a guide, the following entries are already answered.
Cc1cc(-c2cccc(Cl)c2-c2cc3[nH]c(=O)n(-c4cncc(C5CC5)c4)c(=O)c3s2)cn2ncnc12 : 6.56
COc1cc(-c2cc3c(s2)c(=O)n(-c2cncc4ccccc24)c(=O)n3[C@H]2C[C@H](C#N)C2)c(Cl)cc1F : 16.2
COc1cc(-c2cc3c(s2)c(=O)n(-c2cncc4cccnc24)c(=O)n3CC2(C#N)CC2)c(Cl)cc1F : 6.21
COCCn1ncc2cncc(-n3c(=O)[nH]c4cc(-c5cc(OC)c(F)cc5Cl)sc4c3=O)c21 : 15.2
Cn1ncc2cncc(-n3c(=O)[nH]c4cc(-c5c(Cl)cc(Cl)c6c5CCO6)sc4c3=O)c21 : 12
COc1cc(-c2cc3[nH]c(=O)n(-c4cncc5ccccc45)c(=O)c3s2)c(C#N)cc1F : 6.15
O=C(C1CC1)N1CCN(c2ccc3cncc(-n4c(=O)[nH]c5cc(-c6ccccc6Cl)sc5c4=O)c3c2)CC1 : 6.5
COc1cc(-c2cc3c(s2)c(=O)n(-c2cncc4ncccc24)c(=O)n3CCC#N)c(Cl)cc1F : 8.9

IC50 measured on `O=c1[nH]c2cc(-c3c(Cl)cc(Cl)c4c3CCO4)sc2c(=O)n1-c1cncc2ccccc12` = 10.9

IC50 measured on `N#CCCn1c(=O)n(-c2cncc(Cl)c2)c(=O)c2sc(-c3ccccc3C#N)cc21` = 13.3

IC50 measured on `COc1ccc(C#N)c(-c2cc3[nH]c(=O)n(-c4cncc5ccc(N6CCn7nc(C(F)(F)F)nc7C6)cc45)c(=O)c3s2)c1` = 10.1
